Where do these numbers come from? They come from patent US8481592B2.

Please go through the items and note down their Plasma Triglyceride.
# test.name: Biochemical index of blood and liver tissue in mice fed high fat diet containing sesquiterpene compound
# Assay type: in vivo, mouse
# experimental.conditions: HFD with compound in diet, 8 weeks, fasted
# output: bare number, implied unit mmol/L

Which value of Plasma Triglyceride has been reported for C[C@@H]1CC[C@H]2C(C)(C)[C@H]3C[C@@]12CC1OC13C (stereo partly shown) [cedrene epoxide, Cedrene epoxide] in the records?
1.32

Which value of Plasma Triglyceride has been reported for CC(=O)O[C@]1(C)CC[C@@]23C[C@@H]1C(C)(C)[C@@H]2CC[C@H]3C [Cedryl acetate, cedryl acetate] in the records?
1.12

Which value of Plasma Triglyceride has been reported for CC1=CC[C@@]23C[C@@H]1C(C)(C)C2CC[C@H]3C (stereo partly drawn) [(−)-α-cedrene] in the records?
0.81

Which value of Plasma Triglyceride has been reported for CO[C@]1(C)CC[C@@]23C[C@@H]1C(C)(C)[C@@H]2CC[C@H]3C in the records?
1.29

Which value of Plasma Triglyceride has been reported for C=C1CC[C@@]23C[C@@H]1C(C)(C)C2CC[C@H]3C (stereo partly drawn) [(+)-β-cedrene] in the records?
1.32

Which value of Plasma Triglyceride has been reported for C[C@@H]1CC[C@H]2C(C)(C)[C@H]3C[C@@]12CC[C@@]3(C)O [(+)-cedrol] in the records?
1.31

Which value of Plasma Triglyceride has been reported for CC1=CCC23CC1C(C)(CO)C2CCC3C (stereo not shown) in the records?
1.20
